Study System: HDM2 (Homo sapiens)
Construct: Thioredoxin (N); made in house; host or cells: E. coli strain BL21(DE3)Rosetta
Assay Text: HDM2 FRET assay (inhibition of binding of FITC labeled p53-pocket peptide to HDM2)
Reported Conditions: 0.5 nM HDM2 (residues 17 to 125), 3nM peptide, two hour incubation at room temperature; read-out: FRET IC50
pIC50: −log10 of the molar value.
Think of 7 as a floor: if pIC50 stands on it or above, it is yes; beneath it, no.

Lookup: Quick check, pIC50 >= 7? `CC(C)c1ccnc(-c2nc3nc(-c4cnn[nH]4)nc(N[C@H](C)C4CCC4)c3n2Cc2ccc(C(F)(F)F)cc2)c1`
Found: no

Lookup: Same lookup for `C[C@H]1CC[C@H](Cn2c(N3CCOCC34CC4)nc3nc(-c4n[nH]c(=O)o4)nc(-c4cccc(Cl)c4)c32)CC1` , please.
Found: yes

Lookup: // next record `C[C@@H](Nc1nc(-c2nnn(C)n2)nc2nc(N3CCOC[C@H]3c3ccccc3)n(C[C@H]3CC[C@H](C)CC3)c12)C1CCC1`
Found: yes

Lookup: Now try `CC(C)c1ccnc(-c2nc3nc(CNS(C)(=O)=O)nc(N[C@H](C)C4CCC4)c3n2C[C@H]2CC[C@H](C)CC2)c1` .
Found: no

Lookup: Ok, now `C[C@H]1CC[C@H](Cn2c(N3CCOCC34CCC4)nc3nc(-c4n[nH]c(=O)o4)nc(-c4cccc(Cl)c4)c32)CC1`
Found: yes

Lookup: Query `C[C@H]1CC[C@H](Cn2c(N3CCOC[C@H]3c3ccccn3)nc3nc(-c4noc(=O)[nH]4)nc(-c4cccc(Cl)c4)c32)CC1` next
Found: yes

* * *

Study System: HDM2 (Homo sapiens, UniProt Q00987)
Construct: Thioredoxin (N); made in house; host or cells: E. coli strain BL21(DE3)Rosetta
Sequence (Q00987 17-125): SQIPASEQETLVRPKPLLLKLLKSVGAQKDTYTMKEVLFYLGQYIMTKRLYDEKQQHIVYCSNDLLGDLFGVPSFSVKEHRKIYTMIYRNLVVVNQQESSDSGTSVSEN
Assay Text: FRET assay (HDM2 inhibition; method not described in this part)
Assay type: binding
Reported Conditions: Table 1
Exercise: for every item that follows, state its recorded pIC50.
Formally, pIC50 is defined as -log10 of the concentration c, with c in mol/L.

Lookup: I have this molecule here, C[C@@H](Nc1nc(C(=O)O)nc2nc(-c3ccc(Cl)c(C(F)(F)F)c3)n(Cc3ccc(C(F)(F)F)cc3)c12)C1CCC1 [Example 1.115] , and I need its recorded pIC50.
Found: 7.76

Lookup: Param item: C[C@@H](Nc1nc(C(=O)O)nc2nc(-c3cc(C(F)F)ccn3)n(Cc3ccc(C(F)(F)F)cc3)c12)C1CCC1 [Example 1.46]
Found: 7.91

Lookup: Record: C[C@@H](Nc1nc(C(=O)O)nc2nc(-c3cc(Cc4ccccc4)ccn3)n(Cc3ccc(C(F)(F)F)cc3)c12)C1CCC1 [Example 1.9]
Found: 7.43

Lookup: Now the molecule CCc1ccnc(-c2nc3nc(C(=O)O)nc(N[C@H](C)C4CCC4)c3n2Cc2ccc(C(F)(F)F)c(F)c2)c1 [Example 1.79]
Found: 7.99

Lookup: Repeat for the following molecule: C[C@@H](Nc1nc(C(=O)O)nc2nc(-c3cc(C(F)(F)F)ccn3)n(Cc3ccc(C(F)(F)F)cc3)c12)C1CCC1 [Example 1.60]
Found: 7.82

Lookup: Next up: C[C@@H](Nc1nc(C(=O)O)nc2nc(-c3ccc(S(C)(=O)=O)cc3)n(Cc3ccc(C(F)(F)F)cc3)c12)C1CCC1 [Example 1.24]
Found: 6.95

Lookup: Further, for CCc1ccc(O)c(-c2nc3nc(C(=O)O)nc(N[C@H](C)C4CCC4)c3n2Cc2ccc(C(F)(F)F)cc2)c1 [Example 1.29] ?
Found: 7.34

Lookup: Follow-up entry: CC(C)c1ccnc(-c2nc3nc(C(=O)O)nc(N[C@H](C)C4CCC4)c3n2Cc2ccc(OC(F)(F)F)c(F)c2)c1 [Example 1.71]
Found: 8.02

Lookup: Try this molecule next: Cc1cnc(-c2nc3nc(C(=O)O)nc(N[C@H](C)C4CCC4)c3n2Cc2ccc(OC(F)(F)F)c(F)c2)cc1C(C)C [Example 1.90]
Found: 7.61

Lookup: Proceed to CC(C)c1ccnc(-c2nc3nc(C(=O)O)nc(N[C@H](C)C4CCC4)c3n2Cc2ccc(C(F)(F)F)s2)c1 [Example 1.7]
Found: 7.57

Lookup: Now this one: Cc1cc(C(C)C)cc(-c2nc3nc(C(=O)O)nc(N[C@H](C)C4CCC4)c3n2Cc2ccc(C(F)(F)F)cc2)n1 [Example 1.93]
Found: 7.72

Lookup: # iterate: COc1ccc(-c2nc3nc(C(=O)O)nc(N[C@H](C)C4CCC4)c3n2Cc2ccc(C(F)(F)F)cc2)cc1C [Example 1.105]
Found: 7.78

Lookup: CC(C)c1ccnc(-c2nc3nc(C(=O)O)nc(N[C@H](C)C4CCC4)c3n2Cc2ccc(Cl)c(F)c2)c1 [Example 1.6] , same question.
Found: 8.55
